- Test system: HepG2
- EXPERIMENTAL_DETAILS: Antiproliferative activity against Homo sapiens (human) HepG2 cells assessed as growth inhibition after 48 hr by MTT assay
- CONDITION_DETAILS: HepG2, 48 h
IC50 less than 20 µM is class 1; IC50 greater than or equal to 20 µM is class 0.

Solved entries (count: 6):
O=C(CSc1nnc(-c2ccncc2)n1-c1ccccc1)N/N=C/c1cc(Br)cc(Br)c1O :: class 1
Brc1ccc(CSc2nnc(-c3ccncc3)n2-c2ccccc2)cc1 :: class 1
O=C(CSc1nnc(-c2ccncc2)n1-c1ccccc1)N/N=C/c1ccc(O)cc1 :: class 0
c1ccc(CSc2nnc(-c3ccncc3)n2-c2ccccc2)cc1 :: class 1
Fc1ccccc1CSc1nnc(-c2ccncc2)n1-c1ccccc1 :: class 0
O=C(CSc1nnc(-c2ccncc2)n1-c1ccccc1)N/N=C/c1ccc(Cl)cc1 :: class 1

Incoming: Does the reported IC50 of `Brc1cccc(CSc2nnc(-c3ccncc3)n2-c2ccccc2)c1` stay below 20 µM?
Outgoing: class 1

Incoming: For `Clc1ccc(CSc2nnc(-c3ccncc3)n2-c2ccccc2)cc1` , is the recorded IC50 below the cut-off of 20 µM?
Outgoing: class 1

Incoming: Decide: IC50 of `O=[N+]([O-])c1ccccc1CSc1nnc(-c2ccncc2)n1-c1ccccc1` strictly below 20 µM?
Outgoing: class 0

Incoming: # check: IC50 < 20 µM for `O=C(CSc1nnc(-c2ccncc2)n1-c1ccccc1)N/N=C/c1ccc(O)c(O)c1`
Outgoing: class 1

Incoming: Hello, I'm reviewing records and need to know if IC50 of `O=[N+]([O-])c1cccc(CSc2nnc(-c3ccncc3)n2-c2ccccc2)c1` is below 20 µM. Could you check?
Outgoing: class 0

Incoming: State whether 20 µM exceeds IC50 recorded for `O=C(CSc1nnc(-c2ccncc2)n1-c1ccccc1)N/N=C/c1cccc(F)c1` .
Outgoing: class 0

Incoming: Consider the molecule `Fc1cccc(F)c1CSc1nnc(-c2ccncc2)n1-c1ccccc1` . Is its IC50 strictly less than 20 µM?
Outgoing: class 0
